Target: mCD1d:Ig fusion protein (CD1d) (Mus musculus)
Sequence (P11609 22-305 limits assumed): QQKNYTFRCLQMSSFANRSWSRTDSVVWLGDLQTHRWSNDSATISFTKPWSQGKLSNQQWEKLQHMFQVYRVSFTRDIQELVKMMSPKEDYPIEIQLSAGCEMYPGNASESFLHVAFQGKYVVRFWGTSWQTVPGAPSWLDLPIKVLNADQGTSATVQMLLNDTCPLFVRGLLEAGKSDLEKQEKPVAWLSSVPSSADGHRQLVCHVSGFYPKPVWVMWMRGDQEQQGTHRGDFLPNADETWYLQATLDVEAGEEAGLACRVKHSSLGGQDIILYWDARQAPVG
Sequence (P01887 21-119 partner): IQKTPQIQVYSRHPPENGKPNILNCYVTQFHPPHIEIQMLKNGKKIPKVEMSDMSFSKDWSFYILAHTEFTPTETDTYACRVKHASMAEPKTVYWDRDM
Assay: Competitive binding assay on microarray (Ki in solution)
Settings: competition against surface compound 1; CD1d ~100-200 nM
Ki reference
Lab book: enter the figure in µM, no units written.

CCCCCCCCCCCCCC[C@@H](O)[C@@H](O)[C@H](CO[C@H]1O[C@H](CO)[C@H](O)[C@H](O)[C@H]1O)NC(=O)CCCCCCCc1ccc(F)cc1: 0.14

// moving on: another record for Ki
Ask: Report Ki, nothing else, for this molecule: CCCCCCCCCCCCCCCCCCCCCCCCCC(=O)N[C@@H](CO[C@H]1O[C@H](CO)[C@H](O)[C@H](O)[C@H]1O)[C@H](O)[C@H](O)CCCCCCCCCCCCCC [α-GalCer, α-galactosyl ceramide]
Reply: 14
